- target-or-system: HDAC3 (Homo sapiens)
- Construct: purchased BPS Bioscience
- Sequence (O15379 whole entry): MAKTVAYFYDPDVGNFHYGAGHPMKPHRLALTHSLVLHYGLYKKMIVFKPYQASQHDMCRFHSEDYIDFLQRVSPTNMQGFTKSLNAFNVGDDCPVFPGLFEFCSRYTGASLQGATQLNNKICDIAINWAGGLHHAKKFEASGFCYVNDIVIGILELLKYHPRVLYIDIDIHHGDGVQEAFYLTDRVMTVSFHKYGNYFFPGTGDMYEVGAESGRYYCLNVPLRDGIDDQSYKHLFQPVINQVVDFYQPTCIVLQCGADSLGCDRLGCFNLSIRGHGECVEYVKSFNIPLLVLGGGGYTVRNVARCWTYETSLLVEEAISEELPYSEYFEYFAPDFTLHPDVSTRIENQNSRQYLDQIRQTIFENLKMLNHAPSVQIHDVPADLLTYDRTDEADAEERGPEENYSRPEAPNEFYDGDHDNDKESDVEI
- Sequence (Q9Y618 395-489 partner limits assumed): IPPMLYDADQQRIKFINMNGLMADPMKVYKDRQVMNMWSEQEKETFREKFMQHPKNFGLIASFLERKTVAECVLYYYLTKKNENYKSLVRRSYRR
- test-protocol: In vitro HDAC inhibition fluorescence assay, HDAC3
- Format: biochemical
- condition-summary: 10 nM; read-out: Inhibition Rate of HDAC3 (%)
Classes are defined on inhibition at 0.01 µM with ranges label 0: < 10%; label 1: ≥ 10% and < 30%; label 2: ≥ 30%

Just checking, what class would you give CCCNNC(=O)C=Cc1ccc(CNCc2ccccn2)cc1 [Compound 25d] here?
label 2

Just checking, what class would you give CCCNNC(=O)C=Cc1ccc(CN2C(=O)c3ccccc3C2=O)cc1 here?
label 2

Just checking, what class would you give CCCNNC(=O)c1ccc(CCC(=O)NCCc2ccccc2)cc1 here?
label 1

Just checking, what class would you give CCCNNC(=O)CCCNC(=O)Cc1ccccc1 [Compound 14a] here?
label 0

Just checking, what class would you give CCCNNC(=O)CCC(=O)NCCc1ccccc1 here?
label 0

Just checking, what class would you give CCCNNC(=O)C=Cc1ccc(C(=O)NC2Cc3ccccc3C2)cc1 [Compound 19a] here?
label 2

Just checking, what class would you give CCCNNC(=O)C=Cc1ccc(C(=O)N2CCc3ccc(Br)cc3C2)cc1 [Compound 19d] here?
label 0

Just checking, what class would you give CCCNNC(=O)CCCCNC(=O)Cc1ccccc1 [Compound 14b] here?
label 1

Just checking, what class would you give CCCNNC(=O)CCCCCCNC(=O)Cc1ccccc1 [Compound 14d] here?
label 1

Just checking, what class would you give CCCNNC(=O)CCCCCCCNC(=O)Cc1ccccc1 [Compound 14e] here?
label 1

Just checking, what class would you give CCCNNC(=O)C=Cc1ccc(CNCc2ccccc2)cc1 [Compound 25b] here?
label 2

Just checking, what class would you give CCCNNC(=O)c1ccc(C(=O)NCCc2ccccc2)cc1 here?
label 1

Just checking, what class would you give CCCNNC(=O)C=Cc1ccc(CNCCc2ccccc2)cc1 [Compound 25c] here?
label 2

Just checking, what class would you give CCCNNC(=O)CCCC(=O)NCCc1ccccc1 here?
label 1

Just checking, what class would you give CCCNNC(=O)C=Cc1ccc(CNc2ccccc2)cc1 [Compound 25a] here?
label 2

Just checking, what class would you give CCCNNC(=O)C=Cc1ccc(CNc2cccc3ccccc23)cc1 [Compound 25f] here?
label 1

Just checking, what class would you give CCCNNC(=O)c1ccc(CC(=O)NCCc2ccccc2)cc1 here?
label 0

Just checking, what class would you give CCCNNC(=O)C=Cc1ccc(CNCc2cccc3ccccc23)cc1 [Compound 25g] here?
label 2

Just checking, what class would you give CCCNNC(=O)CCCCCNC(=O)Cc1ccccc1 [Compound 14c] here?
label 1

Just checking, what class would you give CCCNNC(=O)CCCCC(=O)NCCc1ccccc1 here?
label 1

Just checking, what class would you give CCCNNC(=O)C=Cc1ccc(C(=O)N2CCc3ccccc3C2)cc1 [Compound 19b] here?
label 0
